- Assay Target: Mu-type opioid receptor (Homo sapiens, UniProt P35372)
- Sequence (P35372 whole entry): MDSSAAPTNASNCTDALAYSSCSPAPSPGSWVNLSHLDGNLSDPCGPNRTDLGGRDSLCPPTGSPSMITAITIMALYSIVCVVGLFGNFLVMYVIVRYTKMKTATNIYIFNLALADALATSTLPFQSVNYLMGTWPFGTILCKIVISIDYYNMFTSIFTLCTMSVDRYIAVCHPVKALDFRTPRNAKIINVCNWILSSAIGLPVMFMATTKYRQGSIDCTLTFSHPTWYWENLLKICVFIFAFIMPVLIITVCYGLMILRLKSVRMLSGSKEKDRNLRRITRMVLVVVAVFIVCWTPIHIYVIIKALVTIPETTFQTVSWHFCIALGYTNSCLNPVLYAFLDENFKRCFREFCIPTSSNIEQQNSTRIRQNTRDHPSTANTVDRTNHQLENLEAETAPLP
- Assay Comment: Agonist activity at human MOR stably expressed in CHO cell membranes assessed as stimulation of [35S]-GTPgammaS binding incubated for 1 hr by liquid scintillation counting assay
- Type: functional
Numbered stars: 1 amine (or outer) side, 2 acyl side, 3 side chain; on linkers, the order of the positions; unused ones are H or OH. Square brackets hold non-standard residues; d marks the D form. Peptide text beside a SMILES is read from it. X1 = O=C1[C@@H](N[*:1])Cc2ccccc2CN1CCC(=O)[*:2]; Dmt = Cc1cc(O)cc(C)c1C[C@H](N)C(=O)O; mTyr = N[C@@H](Cc1cccc(O)c1)C(=O)O; Tle = CC(C)(C)[C@H](N)C(=O)O
Value Type: EC50 (nM)
Unit nM implied. Number only.

Exercise: Give the measured EC50 for Cc1cc(O)cc(C)c1C[C@H](N)C(=O)N[C@H](CCCNC(=N)N)C(=O)N[C@H]1Cc2ccccc2CN(CCC(=O)N[C@@H](CCCNC(=N)N)C(=O)N[C@@H](CCCNC(=N)N)C(=O)N2CCC[C@H]2C(=O)N[C@@H](Cc2ccc(O)cc2)C(=O)N[C@H](C(=O)N[C@@H](CC(C)C)C(=O)O)C(C)(C)C)C1=O (H-[Dmt][dR][X1]RRPY[Tle]L-OH)
Key: 12.8

Exercise: Give the measured EC50 for Cc1cc(O)cc(C)c1C[C@H](NC(=O)[C@@H]1CCCN1C(=O)[C@H](CCCNC(=N)N)NC(=O)[C@H](CCCNC(=N)N)NC(=O)CCN1Cc2ccccc2C[C@H](NC(=O)[C@@H](CCCNC(=N)N)NC(=O)[C@@H](N)Cc2c(C)cc(O)cc2C)C1=O)C(=O)N[C@H](C(=O)N[C@@H](CC(C)C)C(=O)O)C(C)(C)C (H-[Dmt][dR][X1]RRP[Dmt][Tle]L-OH)
Key: 9.12

Exercise: Give the measured EC50 for Cc1cc(O)cc(C)c1C[C@H](N)C(=O)N[C@H](CCCNC(=N)N)C(=O)N[C@H]1Cc2ccccc2CN(CCC(=O)N[C@@H](CCCCN)C(=O)N[C@@H](CCCCN)C(=O)N2CCC[C@H]2C(=O)N[C@@H](Cc2cccc(O)c2)C(=O)N[C@H](C(=O)N[C@@H](CC(C)C)C(=O)O)C(C)(C)C)C1=O (H-[Dmt][dR][X1]KKP[mTyr][Tle]L-OH)
Key: 27.4
